Biological target: NanoLuc-CRBN (Homo sapiens, UniProt Q96SW2)
Construct: expressed in transfected cells; host or cells: HEK293T, lentiviral transduction, puromycin selection
Sequence (Q96SW2 whole entry): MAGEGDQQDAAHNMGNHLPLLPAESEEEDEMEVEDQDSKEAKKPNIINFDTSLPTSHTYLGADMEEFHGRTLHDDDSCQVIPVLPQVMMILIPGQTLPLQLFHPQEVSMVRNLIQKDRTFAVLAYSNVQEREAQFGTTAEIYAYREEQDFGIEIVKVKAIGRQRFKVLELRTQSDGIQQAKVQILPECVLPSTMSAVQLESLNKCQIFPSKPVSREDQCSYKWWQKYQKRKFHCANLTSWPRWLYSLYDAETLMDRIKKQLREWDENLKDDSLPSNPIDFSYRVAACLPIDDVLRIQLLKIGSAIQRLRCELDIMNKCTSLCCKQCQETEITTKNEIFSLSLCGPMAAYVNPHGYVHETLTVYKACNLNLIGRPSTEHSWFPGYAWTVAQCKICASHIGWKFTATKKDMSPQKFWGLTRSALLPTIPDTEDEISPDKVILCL
Experiment: Cellular CRBN NanoBret Engagement Assay
Assay type: cell-based
Description: HEK293T cells were transduced with lentivirus and put under puromycin selection (5 μg/mL) for two weeks to produce a cell line stably expressing CRBN with N-terminally fused NanoLuc® luciferase (NanoLuc-CRBN). […] The density of this cell suspension was determined by diluting the cells 1:1 with trypan blue, then counting using a Countess II (Thermo Fischer Scientific) and then diluted to the required volume at 2×10^5 viable cells/mL in Opti-MEM™ I (Gibco, Life Technologies). […]
Assay readout: pIC50
Value format note: pIC50 is -log10 of concentration (mol/L); just state the number.

Memo: Nc1cc(OS(=O)(=O)F)cc2c1CN(C1CCC(=O)NC1=O)C2=O (stereo not shown) , reported pIC50: 6.05

src = patent US20240409528A1
